These entries and their values trace back to paper PMC7412453.

Tested on: T. cruzi epimastigotes
experiment.description: Trypanocidal activity against T. cruzi epimastigotes (XTT)
Assay type: cell-based, Trypanosoma cruzi
study.conditions: mouse (RAW 264.7 cells) / Trypanosoma cruzi (epimastigotes), RAW cell IC50 / T. cruzi IC50; read-out: T. cruzi SI (selectivity index, cytotoxicity/anti-protozoal activity)
Param label: returns 1 when selectivity ratio at 72 h < 4, returns -1 otherwise, including exact equality.

COc1ccc2c(c1)-c1cc(COC(=O)c3ccccc3)ccc1C(C)(C)O2 [4l]: -1
COc1ccc2c(c1)-c1cc(COC(=O)C(C)(C)C)ccc1C(C)(C)O2 [4c]: 1
COc1ccc2c(c1)-c1cc(CCl)ccc1C(C)(C)O2 [3b]: 1
COc1ccc2c(c1)-c1cc(COC(=O)c3ccco3)ccc1C(C)(C)O2 [4k]: -1

Now, please, on to the next compound.
Take the compound COc1ccc2c(c1)-c1cc(COC(=O)CCC3CCCC3)ccc1C(C)(C)O2 [4h] and say whether its selectivity ratio at 72 h is less than 4. -1
